Origin of values: ChEMBL document CHEMBL3046108

Listed compounds paired with reported inhibition
System: Radical scavenging activity
assay notes: Antioxidant activity of the compound assessed as DPPH radical scavenging activity at 10 ug/ml after 30 min
Type: functional
Your answer is read as %, so omit the unit and give the number.

{"compound": "Clc1ccc(-c2nnc(-c3ccncc3)o2)cc1", "result unit": "%", "inhibition": 53.8}
{"compound": "Nc1ccc(-c2nnc(-c3ccncc3)o2)cc1", "result unit": "%", "inhibition": 41.4}
{"compound": "O=[N+]([O-])c1ccc(-c2nnc(-c3ccncc3)o2)cc1", "result unit": "%", "inhibition": 39.8}

Param readout = inhibition; param system = Radical scavenging activity; param query = `Cc1cccc(-c2nnc(-c3ccccc3N)o2)c1O` ; response: value
81.9

API: value(readout= inhibition, system= Radical scavenging activity, query= O=C1O[C@H]([C@@H](O)CO)C(O)=C1O [ASCORBIC ACID] )
87.3

Recorded inhibition for `Nc1ccccc1-c1nnc(-c2ccccc2N)o1` with Radical scavenging activity, please?
64

Can you look up inhibition on Radical scavenging activity for `Nc1ccc(-c2nnc(-c3ccccc3N)o2)c(O)c1` ?
24.9

Find inhibition (Radical scavenging activity) for the entry `Nc1ccccc1-c1nnc(-c2cccc([N+](=O)[O-])c2)o1`
30.8

Any idea what inhibition came out for `O=[N+]([O-])c1cccc(-c2nnc(-c3ccncc3)o2)c1` on Radical scavenging activity?
71.2

Param readout = inhibition; param system = Radical scavenging activity; param query = `Nc1ccccc1-c1nnc(-c2ccc(Cl)cc2)o1` ; response: value
59.5
